Data origin: PubChem BioAssay

Assay: human hepatoma cell viability loss – ATP luminescence, cytotoxicity control for P. falciparum antimalarial project, primary screen (AID 2303);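 further: 0% = DMSO wells and 100% = digitonin-killed cells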
Conditions: HepG2 viability, 24-48 h, at 10 µM, active compounds read high
Each entry below carries its reported inhibition.
Use % as the unit, but write only the number.

Example results:
MOLECULE | inhibition / %
Cc1ccc(CN2CCCCC(NC(=O)c3cc4ccccc4s3)C2)cc1 (centres undefined) | 9
COc1ccc(O)c(Cc2cnc3nc(N)[nH]c(=O)c3c2C)c1 | 30
Cc1ccc(S(=O)(=O)NC2=NC(C)(C)N(OCc3ccc(Cl)c(Cl)c3)C(N)=N2)cc1 | -5
COc1ccc2nc(C)cc(NCc3ccc4ccccc4c3)c2c1 | 21
Cc1cccc2[nH]c(-c3ccc(-c4ccc(CN5CCN(c6cnccn6)CC5)cc4)s3)nc12 | 11

Data request: Read the entry `Clc1ccc(-c2cc(-c3csc(NCCN4CCCCC4)n3)on2)cc1` and write its reported inhibition.
Data returned: 81

Data request: Read the entry `O=[N+]([O-])c1ccc2nc(Nc3ccc(Cl)c(Cl)c3)c(Nc3ccc(Cl)c(Cl)c3)nc2c1` and write its reported inhibition.
Data returned: 1

Data request: Read the entry `CC(C)NCc1cc(Nc2ccnc3cc(Cl)ccc23)ccc1O` and write its reported inhibition.
Data returned: 27

Data request: Read the entry `Cc1ccc2c(OCCN3CCC(Cc4ccc5c(c4)NC(=O)CO5)CC3)cc(F)cc2n1` and write its reported inhibition.
Data returned: 24

----------
Assay: human hepatoma cell viability loss – ATP luminescence, cytotoxicity control for P. falciparum antimalarial project, primary screen (AID 2303);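 further: 0% = DMSO wells and 100% = digitonin-killed cells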
Details: HepG2 viability, 24-48 h, at 10 µM
Active and inactive are the calls of the source.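 How the source made its calls: active means inhibition above 50%; inactive means the rest.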
Field 'call' accepts active, inactive

Data request: GET /call?item= `FC(F)(F)c1ccc2nc(-c3ccc(-c4cccc(CNCc5cnn(-c6ccccc6)n5)c4)s3)[nH]c2c1` returns the recorded outcome of this test.
Data returned: inactive

Data request: GET /call?item= `COc1ccc2nc(C)cc(NN=Cc3ccc(F)cc3)c2c1` returns the recorded outcome of this test.
Data returned: inactive

Data request: GET /call?item= `O=C(/C=C/c1ccc(Cl)c(Cl)c1)NCCCCCN1CCC(NC(=O)Nc2ccc(F)cc2F)CC1` returns the recorded outcome of this test.
Data returned: inactive

Data request: GET /call?item= CC(C)C(NC(=O)Cc1cccc2ccccc12)C(=O)Nc1cccc(C#N)c1 (stereo not drawn) returns the recorded outcome of this test.
Data returned: inactive

Data request: GET /call?item= `O=C(CCNc1ccnc(NCC2CCCCC2)n1)Nc1ccccc1` returns the recorded outcome of this test.
Data returned: active

Data request: GET /call?item= CCCCCCNC(=O)C1Cc2c([nH]c3ccc(C)cc23)C2(CCN(Cc3ccccc3)CC2)N1 (stereo not drawn) returns the recorded outcome of this test.
Data returned: inactive

Data request: GET /call?item= `CC(=O)c1ccc(NC(=O)NNC(=O)c2ccc(CCN3CCC(c4nc(COCC(F)(F)F)c(-c5ccc(F)cc5)o4)CC3)cc2)cc1` returns the recorded outcome of this test.
Data returned: inactive

Data request: GET /call?item= `CCCCc1cc(NCC)nc(Nc2ccc(F)cc2)n1` returns the recorded outcome of this test.
Data returned: inactive

----------
Each entry below carries its reported growth inhibition.
Experiment: antimalarial activity against Dd2 strain (AID 2302);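 further: 0% = DMSO untreated growth and 100% = chloroquine plus artemisinin killed control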
Settings: P. falciparum Dd2 in RBCs, LDH growth readout, 72 h; at 2 µM; active compounds read high
Use % as the unit, but write only the number.

Example results:
MOLECULE | REPORTED_VALUE
O=C(NCCCN(Cc1ccc(F)cc1)c1ccccn1)C(c1cc2ccccc2o1)N1CCN(C(c2ccccc2)c2ccccc2)CC1 (stereo not given) | 53
Nc1nc(N)c2c(ccc3nn(S(=O)(=O)N4CCCC4)cc32)n1 | 0
COc1cc(C(=O)NCc2nn(CCN3CCC(N4CCCC4)CC3)cc2-c2ccc(Cl)c(Cl)c2)cc(OC)c1OC | -8
Nc1cc(-c2ccc(-c3cccs3)s2)nc2ccccc12 | 50
COc1cccc(-c2cnc(N)c(-c3nc4ccc(C(F)(F)F)cc4[nH]3)c2)c1 | 30

Query molecule follows.
Data request: Read the entry `CCCCCCCCNCc1c(O)ccc2ccccc12` and write its reported growth inhibition.
Data returned: 94

----------
Assay: antimalarial activity against Dd2 strain (AID 2302);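 further: 0% = DMSO untreated growth and 100% = chloroquine plus artemisinin killed control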
Settings: P. falciparum Dd2 in RBCs, LDH growth readout, 72 h; at 2 µM
Activity calls are given as the source filed them.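 Rule for the calls: active = growth inhibition above 50% at the single 2 µM test dose, taken to imply half-maximal potency below 2 µM; inactive = the rest.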
Field 'call' accepts True = active, False = inactive

Example results:
MOLECULE | LABEL
COc1ccc(CN2CCC(NCc3cccc([N+](=O)[O-])c3)CC2)cc1 | False
COc1ccc(-c2cccc(NC(=O)c3cccc(C#N)c3)c2)cc1CN1CCNCC1 | False
Cc1c(CNCCCNc2cc(=O)c3ccccc3[nH]2)sc(C(F)F)c1Br | False
CN1CCN(CCCCCCNc2c3ccccc3nc3ccccc23)CC1 | False
O=C(NCC1CCC(C(=O)NCc2cccc3ccccc23)CC1)c1ccc(O)c(-c2ccc(Cl)c(Cl)c2)c1 (configuration not stated) | True
Cc1cccc(OCC2CCN(c3ncc(C(=O)NC4CC4)cc3Cl)CC2)c1 | True

From here, focus on the item given below.
Data request: GET /call?item= OC(c1cc(C(F)(F)F)nc2c(F)cccc12)C1CCCCN1 (configuration not stated) returns the recorded outcome of this test.
Data returned: True

----------
Assay: inhibition of 3D7 malaria parasite growth – strain 3D7 (AID 2306);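 further: 0% = DMSO wells and 100% = chloroquine plus artemisinin control wells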
Settings: P. falciparum 3D7 erythrocytic growth, LDH absorbance, 72 h; at 2 µM; active compounds read high
QUANTITY_KIND: growth inhibition (%)
Use % as the unit, but write only the number.

Example results:
COMPOUND | REPORTED_VALUE
COc1ccc(NC(=O)/C=C/c2ccccc2Cl)cc1OCCN1CCC(N(C)C)CC1 | 89
NC(=O)C1CCN(Cc2ccc(-c3ccc(-c4nc5ccc(F)cc5[nH]4)cc3)cc2)CC1 | 101
Cc1cccc(S(=O)(=O)Nc2cccc(CCN3CCC(N4CCCCC4)CC3)c2)c1 | 87
CC(C)c1cc2c(ccc3nc(N)nc(N)c32)o1 | 99
CN1CCCC1CCNCc1ccc(-c2ccc(CNCCc3ccccc3)cn2)cc1 (stereo not given) | 101

Data request: Read the entry `CC(=O)Nc1cccc(-c2cnc(N)c3cc(-c4ccc5c(c4)OCO5)ccc23)c1` and write its reported growth inhibition.
Data returned: 99

Data request: Read the entry `Cc1ccc(C)c(Cn2ccc3nc(Cl)nc(Cl)c32)c1` and write its reported growth inhibition.
Data returned: 95

Data request: Read the entry `CCOc1ccccc1CNc1nccc(NCc2ccccc2OC)n1` and write its reported growth inhibition.
Data returned: 87

Data request: Read the entry CCCC1N=C(N)N=C(N)N1c1ccc(OC)cc1 (stereo not given) and write its reported growth inhibition.
Data returned: 96

Data request: Read the entry `CN1CCN(CC(=O)Nc2cccc(-c3cccc(-c4nc5ccc(C(F)(F)F)cc5[nH]4)c3)c2)CC1` and write its reported growth inhibition.
Data returned: 101

Data request: Read the entry `O=S1(=O)NC2(CCN(CCc3ccc(Cl)cc3)CC2)Nc2cc(F)cc(F)c21` and write its reported growth inhibition.
Data returned: 86

Data request: Read the entry `CC(C)(C)c1ccc(C(=O)Nc2cccc(Nc3c(C(=O)NCc4cccc(C(F)(F)F)c4)cnc4c(O)cccc34)c2)cc1` and write its reported growth inhibition.
Data returned: 83

Data request: Read the entry COc1ccc(NC(C)C(=O)Nc2ccc(Br)cc2)cc1S(=O)(=O)N1CCCCC1 (stereo not given) and write its reported growth inhibition.
Data returned: 99

Data request: Read the entry `CN(C)CCCOc1cc(NC(=O)Nc2ccc(-c3ccncc3)c3ccccc23)ccc1I` and write its reported growth inhibition.
Data returned: 101

Data request: Read the entry CN(C)c1ccc(-c2csc(C(=O)NC3CCN(Cc4ccc(C(C)(C)C)cc4)C3)c2)cc1 (stereo not given) and write its reported growth inhibition.
Data returned: 99

----------
Test: inhibition of 3D7 malaria parasite growth – strain 3D7 (AID 2306);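 further: 0% = DMSO wells and 100% = chloroquine plus artemisinin control wells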
Settings: P. falciparum 3D7 erythrocytic growth, LDH absorbance, 72 h; at 2 µM; active compounds read high
Each entry below carries its reported growth inhibition.
Use % as the unit, but write only the number.

Example results:
MOLECULE | growth inhibition [%]
O=C(C=Cc1ccc([N+](=O)[O-])cc1)N1CCC(CCN2CCC(c3c[nH]c4ccccc34)CC2)CC1 | 100
c1ccc(-c2ccc(CNCCCNc3nc4ccccc4[nH]3)cc2)cc1 | 95
Cc1nc2ccccc2n1C1C[C@H]2CC[C@@H](C1)N2CCCC1(c2ccccc2)CCN(C(=O)OCc2ccccc2)CC1 (stereo not given in full) | 90
CC(C)CCN1CCCN(Cc2cccc(NC(=O)c3cc4ccccc4s3)c2)CC1 | 96
CCCC(=O)c1cnc2c(OCCCc3cnc[nH]3)cccc2c1Nc1c(C)cccc1C | 98
CCN(CC)CCCn1c(N)c(-c2nc3ccccc3[nH]2)c2nc(C#N)c(C#N)nc21 | 100

Data request: Read the entry CC(Nc1ccc2c(c1)OCCO2)C(=O)Nc1cc(C(F)(F)F)ccc1N1CCOCC1 (stereo not given) and write its reported growth inhibition.
Data returned: 98

Data request: Read the entry `CC(=O)c1cccc(S(=O)(=O)NCCCNc2nc3cc(C)cc(C)c3cc2C#N)c1` and write its reported growth inhibition.
Data returned: 95

Data request: Read the entry `N#Cc1cccc(-c2ccc(C(=O)Nc3ccc4c(c3)CCN(C3CCC3)CC4)cn2)c1` and write its reported growth inhibition.
Data returned: 96

Data request: Read the entry `Cc1ccc(Cn2ncc(NC3CCNCC3)c(Cl)c2=O)cc1NC(=O)Nc1ccc(-c2ccccc2)cc1` and write its reported growth inhibition.
Data returned: 99

Data request: Read the entry `COc1ccc(CN2CCC(NCc3cccc(C(F)(F)F)c3)CC2)cc1` and write its reported growth inhibition.
Data returned: 99
